Test Method Notes: Clearance in C57BL/6 mouse plasma at 10 mg/kg, ip administered as single dose by mass spectrometry
Type: ADME, organism-based
# maps each entry to its CL/F
Result Type: CL/F (mL/min/kg)

> print(dat)
                              line.notation  result.type  unit.info  assay.result
1  CN1C(=O)c2cc(NC(=O)c3ccc(C(F)(F)F)cc3)ccc2OC[C@@H]2O[C@H](CNc3nnc(C4CCC4)o3)CC[C@@H]21         CL/F  mL/min/kg          25.8
2  CC(C)COC(=O)NC[C@@H]1CC[C@H]2[C@H](COc3ccc(NC(=O)c4ccc(C(F)(F)F)cc4)cc3C(=O)N2C)O1         CL/F  mL/min/kg          46.2
3  CN1C(=O)c2cc(NC(=O)c3ccc(C(F)(F)F)cc3)ccc2OC[C@@H]2O[C@H](CC(=O)NC3Cc4ccccc4C3)CC[C@@H]21         CL/F  mL/min/kg           165
